FYI, the data here is from the supplement of paper PMC11417369.

Test system: PF3D7_0420300 AP2 domain 1 (GST-tagged)
Assay: gcPBM binding intensity (ln(normalized median fluorescence intensity)); higher = stronger DNA binding
Whole data set: some 25,000 sequences, median “ln(normalized median fluorescence intensity)” near 9.3, cut for the highest 2% near 10. The list comes from a sample in which the highest values are over-represented; it also holds close analogues and randomly drawn sequences.
I'd appreciate it if you could supply gcPBM binding intensity (ln) values for the items below.
// no unit, no text: just the number

Query :: Report gcPBM binding intensity (ln) for TATACAATCTATATAACACACATATTTATATAAAAT [CACACA_site1797] please.
Result :: 9.46

Query :: Report gcPBM binding intensity (ln) for TACAATATAAAATACACACACACAAACATATATTTA [CACACA_site5941] please.
Result :: 10.2

Query :: Report gcPBM binding intensity (ln) for AAAAAAAACAGACACACACACATACAAAATATATAT [CACACA_site1449] please.
Result :: 10.2

Query :: Report gcPBM binding intensity (ln) for AAAAAAAAAAAAAACACACACATACAGACAAAAATG [CACACA_site83] please.
Result :: 10.1

Query :: Report gcPBM binding intensity (ln) for TTAAATATAAAAAGTAGTACATTTATATTTACCATA [XGTACX_site2962] please.
Result :: 8.96

Query :: Report gcPBM binding intensity (ln) for TTTTATATATTATATACACACATATATATATATATA [CACACA_site2999] please.
Result :: 9.29

Query :: Report gcPBM binding intensity (ln) for AAAAAAAACAGACACACACACAAATACATACACAAA [CACACA_site705] please.
Result :: 10

Query :: Report gcPBM binding intensity (ln) for TATACAATATATATAACACACATATTTATATAAAAT [CACACA_site5061] please.
Result :: 9.57

Query :: Report gcPBM binding intensity (ln) for AACAAAAAAACAAACACACACACACGCATATTTATA [CACACA_site7680] please.
Result :: 10.2

Query :: Report gcPBM binding intensity (ln) for CAATTTATAAAGAAAACACACATATACCTATATACA [CACACA_site6710] please.
Result :: 9.55

Query :: Report gcPBM binding intensity (ln) for ATAAATGACAGACACACACACAAAAAAAAAAAACAA [CACACA_site2626] please.
Result :: 10.2

Query :: Report gcPBM binding intensity (ln) for AAGGATCACGCACAAACACACATATTTATATTTATA [CACACA_site6405] please.
Result :: 9.47

Query :: Report gcPBM binding intensity (ln) for CAAATACCCGGACACACACACACAAAAAAAAAAAAA [CACACA_site4441] please.
Result :: 9.99

Query :: Report gcPBM binding intensity (ln) for TTAATCCACAGACACACACACACAAAATAAAATACA [CACACA_site244] please.
Result :: 10.2

Query :: Report gcPBM binding intensity (ln) for GACATTGATACCAGTAGTACCTATAGATGTTTGTTT [XGTACX_site5736] please.
Result :: 9.55

Query :: Report gcPBM binding intensity (ln) for CAAGAAAAGAAACACACACACATATATATATATATA [CACACA_site3881] please.
Result :: 9.87

Query :: Report gcPBM binding intensity (ln) for AAAAAAAACAGACACACACACAAATATATAAAAATA [CACACA_site1172] please.
Result :: 10

Query :: Report gcPBM binding intensity (ln) for AAAAAAAAAAAAAACACACACACACGCAGATATATA [CACACA_site6672] please.
Result :: 10.1

Query :: Report gcPBM binding intensity (ln) for AAAACAGACAAACACACACACACATATATATATATA [CACACA_site3393] please.
Result :: 10

Query :: Report gcPBM binding intensity (ln) for TTAATACCCGGACACACACACACAAAATAAAATACA [CACACA_site4296] please.
Result :: 10.2
